Tested on: Wnt activity (Sp5-Luc reporter, SW480 colon carcinoma cells)
Test: Wnt activity screening assay: Sp5-Luc reporter gene assay in SW480 cells
Type: cell-based
Conditions: Homo sapiens, at 10 μM, given where EC50 >10 μM, SW480, read-out: percent inhibition at 10 μM
Classification field: enter 1 (yes) for inhibition at 10 µM values not below 10%, 0 (no) for values below it.

INSERT INTO results (smiles_record, experimental_system, class_name) VALUES
  ('O=C(Nc1cncc(-c2ccc3[nH]nc(-c4cc5cccnc5[nH]4)c3n2)c1)C1CCCCC1', 'Wnt activity (Sp5-Luc reporter, SW480 colon carcinoma cells)', '1 (yes)'),
  ('O=C(Nc1cncc(-c2ccc3[nH]nc(-c4cc5c(-c6ccccc6F)ccnc5[nH]4)c3n2)c1)C1CC1', 'Wnt activity (Sp5-Luc reporter, SW480 colon carcinoma cells)', '1 (yes)'),
  ('Fc1ccccc1-c1ccnc2[nH]c(-c3n[nH]c4ccc(-c5cncc(CNCc6ccccc6)c5)nc34)cc12', 'Wnt activity (Sp5-Luc reporter, SW480 colon carcinoma cells)', '1 (yes)'),
  ('c1cnc2[nH]c(-c3n[nH]c4ccc(-c5cncnc5)nc34)cc2c1', 'Wnt activity (Sp5-Luc reporter, SW480 colon carcinoma cells)', '0 (no)'),
  ('CN(C)Cc1cncc(-c2ccc3[nH]nc(-c4cc5cccnc5[nH]4)c3n2)c1', 'Wnt activity (Sp5-Luc reporter, SW480 colon carcinoma cells)', '1 (yes)'),
  ('Cc1ccncc1-c1ccc2[nH]nc(-c3cc4c(-c5ccncc5)ccnc4[nH]3)c2n1', 'Wnt activity (Sp5-Luc reporter, SW480 colon carcinoma cells)', '1 (yes)'),
  ('CN(C)c1cncc(-c2ccc3[nH]nc(-c4cc5c(-c6cccnc6)ccnc5[nH]4)c3n2)c1', 'Wnt activity (Sp5-Luc reporter, SW480 colon carcinoma cells)', '1 (yes)'),
  ('Nc1cncc(-c2ccc3[nH]nc(-c4cc5c(-c6ccncc6)ccnc5[nH]4)c3n2)c1', 'Wnt activity (Sp5-Luc reporter, SW480 colon carcinoma cells)', '1 (yes)'),
  ('O=C(Cc1ccccc1)Nc1cncc(-c2ccc3[nH]nc(-c4cc5c(-c6ccoc6)ccnc5[nH]4)c3n2)c1', 'Wnt activity (Sp5-Luc reporter, SW480 colon carcinoma cells)', '0 (no)'),
  ('c1cc(-c2ccnc3[nH]c(-c4n[nH]c5ccc(-c6cncc(CN7CCCCC7)c6)nc45)cc23)ccn1', 'Wnt activity (Sp5-Luc reporter, SW480 colon carcinoma cells)', '0 (no)'),
  ('c1cc(N2CCCCC2)c2cc(-c3n[nH]c4ccc(C5CCNCC5)nc34)[nH]c2n1', 'Wnt activity (Sp5-Luc reporter, SW480 colon carcinoma cells)', '0 (no)'),
  ('Fc1ccc(-c2ccnc3[nH]c(-c4n[nH]c5ccc(-c6cncnc6)nc45)cc23)cc1', 'Wnt activity (Sp5-Luc reporter, SW480 colon carcinoma cells)', '1 (yes)'),
  ('c1cncc(-c2ccc3[nH]nc(-c4cc5cccnc5[nH]4)c3n2)c1', 'Wnt activity (Sp5-Luc reporter, SW480 colon carcinoma cells)', '1 (yes)'),
  ('c1cc(-c2ccnc3[nH]c(-c4n[nH]c5ccc(-c6cncc(OCCN7CCCC7)c6)nc45)cc23)ccn1', 'Wnt activity (Sp5-Luc reporter, SW480 colon carcinoma cells)', '0 (no)'),
  ('O=C(CC1CCNCC1)Nc1cncc(-c2ccc3[nH]nc(-c4cc5c(-c6ccoc6)ccnc5[nH]4)c3n2)c1', 'Wnt activity (Sp5-Luc reporter, SW480 colon carcinoma cells)', '1 (yes)'),
  ('FC1(F)CCN(Cc2cncc(-c3ccc4[nH]nc(-c5cc6c(-c7cccnc7)ccnc6[nH]5)c4n3)c2)C1', 'Wnt activity (Sp5-Luc reporter, SW480 colon carcinoma cells)', '1 (yes)'),
  ('CC(C)(C)C(=O)Nc1cncc(-c2ccc3[nH]nc(-c4cc5c(-c6cccc(F)c6)ccnc5[nH]4)c3n2)c1', 'Wnt activity (Sp5-Luc reporter, SW480 colon carcinoma cells)', '1 (yes)'),
  ('c1cncc(-c2ccnc3[nH]c(-c4n[nH]c5ccc(-c6ccncc6)nc45)cc23)c1', 'Wnt activity (Sp5-Luc reporter, SW480 colon carcinoma cells)', '0 (no)'),
  ('O=C(Nc1cncc(-c2ccc3[nH]nc(-c4cc5c(-c6ccc(F)cc6)ccnc5[nH]4)c3n2)c1)c1ccccc1', 'Wnt activity (Sp5-Luc reporter, SW480 colon carcinoma cells)', '0 (no)'),
  ('CCCCC(=O)Nc1cncc(-c2ccc3[nH]nc(-c4cc5c(N6CCCCC6)ccnc5[nH]4)c3n2)c1', 'Wnt activity (Sp5-Luc reporter, SW480 colon carcinoma cells)', '1 (yes)'),
  ('CN1CCN(c2ccnc3[nH]c(-c4n[nH]c5ccc(-c6cn[nH]c6)nc45)cc23)CC1', 'Wnt activity (Sp5-Luc reporter, SW480 colon carcinoma cells)', '1 (yes)'),
  ('c1cc(N2CCCCC2)c2cc(-c3n[nH]c4ccc(-c5cncc(CN6CCCCC6)c5)nc34)[nH]c2n1', 'Wnt activity (Sp5-Luc reporter, SW480 colon carcinoma cells)', '0 (no)'),
  ('Cc1ccncc1-c1ccc2[nH]nc(-c3cc4c(-c5ccc(F)cc5)ccnc4[nH]3)c2n1', 'Wnt activity (Sp5-Luc reporter, SW480 colon carcinoma cells)', '1 (yes)'),
  ('Fc1cccc(-c2ccnc3[nH]c(-c4n[nH]c5ccc(-c6cncc(CN7CCCCC7)c6)nc45)cc23)c1', 'Wnt activity (Sp5-Luc reporter, SW480 colon carcinoma cells)', '0 (no)'),
  ('c1ncc(-c2ccc3[nH]nc(-c4cc5c(N6CCCCC6)ccnc5[nH]4)c3n2)cn1', 'Wnt activity (Sp5-Luc reporter, SW480 colon carcinoma cells)', '1 (yes)'),
  ('c1csc(-c2ccnc3[nH]c(-c4n[nH]c5ccc(-c6ccncc6)nc45)cc23)c1', 'Wnt activity (Sp5-Luc reporter, SW480 colon carcinoma cells)', '1 (yes)'),
  ('Fc1cccc(-c2ccnc3[nH]c(-c4n[nH]c5ccc(-c6cncc(OCc7ccccc7)c6)nc45)cc23)c1', 'Wnt activity (Sp5-Luc reporter, SW480 colon carcinoma cells)', '1 (yes)'),
  ('c1csc(-c2ccnc3[nH]c(-c4n[nH]c5ccc(-c6cncnc6)nc45)cc23)c1', 'Wnt activity (Sp5-Luc reporter, SW480 colon carcinoma cells)', '1 (yes)'),
  ('Fc1ccccc1-c1ccnc2[nH]c(-c3n[nH]c4ccc(-c5ccccn5)nc34)cc12', 'Wnt activity (Sp5-Luc reporter, SW480 colon carcinoma cells)', '0 (no)'),
  ('CN(C)Cc1cncc(-c2ccc3[nH]nc(-c4cc5c(-c6ccccc6F)ccnc5[nH]4)c3n2)c1', 'Wnt activity (Sp5-Luc reporter, SW480 colon carcinoma cells)', '0 (no)');
